System: Carrot-1 RNA aptamer
Assay: Properties of Carrot-1 RNA aptamer with different fluorophores (spectra, extinction coefficient, quantum yield, activation fold)
Type: biochemical
Settings: fluorophore bound to Carrot-1 RNA aptamer
Endpoint Label: Exmax (nm)

COC(=O)CNCCN(C)c1ccc(/C=C2N=C(/C=C/c3ccc(Br)cc3)N(C)C\2=O)cc1; 489
CNC(=O)CN1C(=O)/C(=C/c2cc(Cl)c(O)c(Cl)c2)N=C1/C=C/c1ccc(Br)cc1; 478
CCCN1C(=S)/C(=C/c2ccc(N(C)C)nc2)N=C1/C=C/c1ccccc1F; 498
CN1CCc2cc(/C=C3N=C(/C=C/c4ccc(F)nc4)N(CCO)C\3=O)ccc21; 476
COCCOCCOCCOCCN1C(=O)/C(=C/c2cc(F)c(O)c(I)c2)N=C1/C=C/c1ccc(Cl)cc1; 482
C=CCOCCN(C)c1ccc(/C=C2N=C(/C=C/c3ccccc3C#N)N(C)C\2=S)cc1; 547
O=C1/C(=C/c2ccc(O)c(Br)c2)N=C(/C=C/c2cccc(Cl)c2)N1CCO; 480
CCN(CC)c1ccc(/C=C2N=C(/C=C/c3ccc(Cl)cc3)N(CC(=O)OC)C\2=O)nc1; 475

---

Biological target: Carrot-1
Experiment: Binding constant of Carrot-1 and IV-39 by fluorescence titration
Settings: 20 nM Carrot-1 incubated with different concentrations of IV-39
Endpoint Label: Kd (nM)
The reply should contain only the number, in nM.

QUERY: What value of Kd has been recorded for this entry: CN1C(=O)/C(=C/c2ccc(N(C)CCO)cc2)N=C1/C=C/c1ccccc1
RESULT: 58

---

System: Carrot-1 RNA aptamer
Test: Properties of Carrot-1 RNA aptamer with different fluorophores (spectra, extinction coefficient, quantum yield, activation fold)
Type: biochemical
Conditions: fluorophore bound to Carrot-1 RNA aptamer
Endpoint Label: Emmax (nm)

CCCN1C(=S)/C(=C/c2ccc(N(C)C)nc2)N=C1/C=C/c1ccccc1F [Carrot-1-IV-24]; 615
COCCOCCOCCOCCN1C(=O)/C(=C/c2cc(F)c(O)c(I)c2)N=C1/C=C/c1ccc(Cl)cc1 [Carrot-1-IV-12]; 577
O=C1/C(=C/c2ccc(O)c(Br)c2)N=C(/C=C/c2cccc(Cl)c2)N1CCO [Carrot-1-IV-15]; 578
CC(C)CN1C(=O)/C(=C/c2cc(F)c(O)c(Br)c2)N=C1/C=C/c1ncc(C#N)cn1 [Carrot-1-IV-11]; 614
CN1C(=O)/C(=C/c2ccc(N(C)CCO)cc2)N=C1/C=C/c1cccc(O)c1 [Carrot-1-IV-17]; 582
CN1C(=O)/C(=C/c2ccc(N(C)CCS(=O)(=O)O)cc2)N=C1/C=C/c1ccc(C#N)cc1 [Carrot-1-IV-29]; 619
CN1C(=O)/C(=C/c2ccc(N(C)CCO)cc2)N=C1/C=C/c1ccc(F)cc1 [Carrot-1-IV-22]; 580
C#CCN1C(=O)/C(=C/c2ccc(O)c(Cl)c2)N=C1/C=C/c1ccc(I)cc1 [Carrot-1-IV-14]; 585

---

System: Carrot-1 RNA aptamer
Assay: Properties of Carrot-1 RNA aptamer with different fluorophores (spectra, extinction coefficient, quantum yield, activation fold)
Format: biochemical
Conditions: fluorophore bound to Carrot-1 RNA aptamer
Endpoint Label: Exmax (nm)

CN1C(=O)/C(=C/c2ccc(N(C)CCS(=O)(=O)O)cc2)N=C1/C=C/c1ccc(C#N)cc1; 531
CN1C(=O)/C(=C/c2cc(F)c(O)c(F)c2)N=C1/C=C/c1ccccn1; 519
CN1C(=O)/C(=C/c2ccc(N(C)CCO)cc2)N=C1/C=C/c1cccc(F)c1; 522
CN1C(=O)/C(=C/c2cc(Br)c(O)c(Br)c2)N=C1/C=C/c1ccc(F)cc1; 485

---

System: Carrot-1 RNA aptamer
Experiment: Properties of Carrot-1 RNA aptamer with different fluorophores (spectra, extinction coefficient, quantum yield, activation fold)
Type: biochemical
Details: fluorophore bound to Carrot-1 RNA aptamer
Endpoint Label: Extinction coefficient (M⁻¹ cm⁻¹)

Completed entries (count: 4):
COC(=O)CNCCN(C)c1ccc(/C=C2N=C(/C=C/c3ccc(Br)cc3)N(C)C\2=O)cc1 [Carrot-1-IV-32]; 22000
CN1C(=O)/C(=C/c2ccc(N(C)CCS(=O)(=O)O)cc2)N=C1/C=C/c1ccc(C#N)cc1 [Carrot-1-IV-29]; 27000
CN1C(=O)/C(=C/c2cnc(N(C)CCC#N)nc2)N=C1/C=C/c1ccccc1I [Carrot-1-IV-27]; 19000
CN1C(=O)/C(=C/c2ccc(N(C)CCO)cc2)N=C1/C=C/c1ccc(F)cc1 [Carrot-1-IV-22]; 32000

1: CN(C)CCN(C)c1ccc(/C=C2N=C(/C=C/c3cccc(F)c3)N(C)C\2=O)cc1 [Carrot-1-IV-34]
2: CN1CCc2cc(/C=C3N=C(/C=C/c4ccc(F)nc4)N(CCO)C\3=O)ccc21 [Carrot-1-IV-28]
QUERY: Return label of the item with the larger Extinction coefficient. Candidates: 1 , 2 . Label of pick, please.
RESULT: 1

1: CN1C(=O)/C(=C/c2ccc(N(C)CCN)cc2)N=C1/C=C/c1cccc(F)c1 [Carrot-1-IV-33]
2: C=CCOCCN(C)c1ccc(/C=C2N=C(/C=C/c3ccccc3C#N)N(C)C\2=S)cc1 [Carrot-1-IV-23]
QUERY: Return label of the item with the larger Extinction coefficient. Candidates: 1 , 2 . Label of pick, please.
RESULT: 1
(1: 28000 M⁻¹ cm⁻¹, 2: 19000 M⁻¹ cm⁻¹)

1: CNC(=O)CN1C(=O)/C(=C/c2cc(Cl)c(O)c(Cl)c2)N=C1/C=C/c1ccc(Br)cc1 [Carrot-1-IV-13]
2: CN1C(=O)/C(=C/c2ccc(N(C)CCO)cc2)N=C1/C=C/c1cccc(F)c1 [Carrot-1-IV-19]
QUERY: Return label of the item with the larger Extinction coefficient. Candidates: 1 , 2 . Label of pick, please.
RESULT: 2

---

Test system: Carrot-1 RNA aptamer
Assay: Properties of Carrot-1 RNA aptamer with different fluorophores (spectra, extinction coefficient, quantum yield, activation fold)
Assay type: biochemical
Settings: fluorophore bound to Carrot-1 RNA aptamer
Endpoint Label: Emmax (nm)

CN1C(=O)/C(=C/c2cc(F)c(O)c(F)c2)N=C1/C=C/c1ccccn1 [Carrot-1-IV-38]; 581
C=CCOCCN(C)c1ccc(/C=C2N=C(/C=C/c3ccccc3C#N)N(C)C\2=S)cc1 [Carrot-1-IV-23]; 648
COC(=O)CNCCN(C)c1ccc(/C=C2N=C(/C=C/c3ccc(Br)cc3)N(C)C\2=O)cc1 [Carrot-1-IV-32]; 591
CN1CCc2cc(/C=C3N=C(/C=C/c4ccc(F)nc4)N(CCO)C\3=O)ccc21 [Carrot-1-IV-28]; 579

---

Test system: Carrot-1 RNA aptamer
Test: Properties of Carrot-1 RNA aptamer with different fluorophores (spectra, extinction coefficient, quantum yield, activation fold)
Type: biochemical
Conditions: fluorophore bound to Carrot-1 RNA aptamer
Endpoint Label: Exmax (nm)

CN1C(=S)/C(=C/c2cc(F)c(O)c(F)c2)N=C1/C=C/c1ccc(F)cc1; 514
COCCOCCOCCOCC(=O)OCCN(C)c1ccc(/C=C2N=C(/C=C/c3ccc(C#N)cc3)N(C)C\2=O)cc1; 508
CN1C(=O)/C(=C/c2ccc(N(C)CCO)cc2)N=C1/C=C/c1cccc(O)c1; 524
CN1C(=O)/C(=C/c2cnc(N(C)CCC#N)nc2)N=C1/C=C/c1ccccc1I; 472
CN1CCc2cc(/C=C3N=C(/C=C/c4ccc(Br)nc4)N(CC(F)(F)F)C\3=O)ccc21; 485
C#CCN1C(=O)/C(=C/c2ccc(O)c(Cl)c2)N=C1/C=C/c1ccc(I)cc1; 482
CN1C(=S)/C(=C/c2cc(F)c(O)c(F)c2)N=C1/C=C/c1ccc(C#N)cc1; 534
C#CCOCCN(C)c1ccc(/C=C2N=C(/C=C/c3ccc(F)cc3)N(C)C\2=O)cc1; 511

---

Tested on: Carrot-1 RNA aptamer
Test: Properties of Carrot-1 RNA aptamer with different fluorophores (spectra, extinction coefficient, quantum yield, activation fold)
Type: biochemical
Conditions: fluorophore bound to Carrot-1 RNA aptamer
Endpoint Label: Emmax (nm)

CN1C(=O)/C(=C/c2cc(Br)c(O)c(Br)c2)N=C1/C=C/c1ccc(F)cc1; 587
CN1C(=O)/C(=C/c2cc(F)c(O)c(F)c2)N=C1/C=C/c1cccc(O)c1; 574
CN1C(=O)/C(=C/c2cnc(N(C)CCC#N)nc2)N=C1/C=C/c1ccccc1I; 576
CNC(=O)CN1C(=O)/C(=C/c2cc(Cl)c(O)c(Cl)c2)N=C1/C=C/c1ccc(Br)cc1; 579
C#CCOCCN(C)c1ccc(/C=C2N=C(/C=C/c3ccc(F)cc3)N(C)C\2=O)cc1; 578
CN1CCc2cc(/C=C3N=C(/C=C/c4ccc(Br)nc4)N(CC(F)(F)F)C\3=O)ccc21; 588
CN1C(=O)/C(=C/c2ccc(N(C)CCN)cc2)N=C1/C=C/c1cccc(F)c1; 592
CN1C(=O)/C(=C/c2ccc(N)cc2)N=C1/C=C/c1ccc(C#N)cc1; 619
CN(C)CCN(C)c1ccc(/C=C2N=C(/C=C/c3cccc(F)c3)N(C)C\2=O)cc1; 581
COCCOCCOCCOCC(=O)OCCN(C)c1ccc(/C=C2N=C(/C=C/c3ccc(C#N)cc3)N(C)C\2=O)cc1; 621
CN1C(=O)/C(=C/c2ccc(N(C)CCO)cc2)N=C1/C=C/c1cccc(F)c1; 590
CN1C(=S)/C(=C/c2cc(F)c(O)c(F)c2)N=C1/C=C/c1ccc(F)cc1; 598
CN1C(=S)/C(=C/c2cc(F)c(O)c(F)c2)N=C1/C=C/c1ccc(C#N)cc1; 638
CCN(CC)c1ccc(/C=C2N=C(/C=C/c3ccc(Cl)cc3)N(CC(=O)OC)C\2=O)nc1; 574
